Record form. Attribute: Ratio. Fill in for each entry.
assay summary: Genotoxicity in Salmonella typhimurium TA1535/pSK1002 assessed as DNA-damage activity by measuring beta-galactosidase activity at 750 ug/ml measured by SOS-chromotest relative to solvent control
Assay type: toxicity
stated conditions: salmonella enterica subsp. enterica serovar typhimurium; dose 750 µg/ml
One number for each entry.

| compound | Ratio |
| --- | --- |
| CCCCCCCCCCCC(=O)NCC[N+](C)(C)Cc1cnc(C)c2c1COC(C)(CCC)O2.[Cl-] (centres undefined) | 0.3 |
| CCCCCCCCCCCCCC(=O)NCCC[N+](C)(C)Cc1cnc(C)c2c1COC(C)(C)O2.[Cl-] | 1 |
| CCCCCCCCCCCC(=O)OCCC[N+](C)(C)Cc1cnc(C)c2c1COC(CCC)O2.[Cl-] (centres undefined) | 0.5 |
| CCCCCCCCCCCCCC(=O)NCC[N+](C)(C)Cc1nc(C)c2c(c1CO)COC(C)(C)O2.[Cl-] | 0.4 |
| CCCCCCCCCCCCCC(=O)OCC[N+](C)(C)Cc1cnc(C)c2c1COC(CCC)O2.[Cl-] (centres undefined) | 0.3 |

Okay, here is my list. What is Ratio for each of these?
1. CCCCCCCCCCCCCC(=O)NCC[N+](C)(C)Cc1cnc(C)c2c1COC(C)(C)O2.[Cl-]
2. CCCCCCCCCCCCCC(=O)OCC[N+](C)(C)Cc1cnc(C)c2c1COC(C)(C)O2.[Cl-]
3. CCCCCCCCCCCCCC(=O)NCC[N+](C)(C)Cc1cnc(C)c2c1COC(C)(CCC)O2.[Cl-] (centres undefined)
4. CCCCCCCCCCCCCC(=O)OCC[N+](C)(C)Cc1nc(C)c2c(c1CO)COC(C)(C)O2.[Cl-]

1: 0.4; 2: 0.4; 3: 0.3; 4: 0.3
